Reference for the values: ChEMBL document CHEMBL1142719

Target: Adenosine receptor A3 (Homo sapiens)
Sequence (P0DMS8 whole entry): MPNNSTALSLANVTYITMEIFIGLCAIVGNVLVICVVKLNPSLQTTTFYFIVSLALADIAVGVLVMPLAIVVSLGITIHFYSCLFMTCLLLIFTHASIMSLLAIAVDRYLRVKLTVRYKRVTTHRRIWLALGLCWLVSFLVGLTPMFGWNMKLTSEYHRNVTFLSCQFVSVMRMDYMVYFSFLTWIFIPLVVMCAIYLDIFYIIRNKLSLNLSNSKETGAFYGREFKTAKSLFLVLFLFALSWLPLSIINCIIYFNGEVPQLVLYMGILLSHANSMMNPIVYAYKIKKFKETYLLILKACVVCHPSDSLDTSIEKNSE
pKi: −log10 of the molar value.
# if value of pKi reaches 9, tag satisfied; if it stays below, tag not satisfied

Identify whether the reported pKi of the following compound is 9 or greater: `CNC(=O)[C@]12C[C@@H]1[C@@H](n1cnc3c(NCc4cc(C#CCO)ccc4Cl)nc(Cl)nc31)[C@H](O)[C@@H]2O`
not satisfied

Identify whether the reported pKi of the following compound is 9 or greater: `CNC(=O)[C@]12C[C@@H]1[C@@H](n1cnc3c(NCc4cc(Cl)ccc4OCc4ccccc4)nc(Cl)nc31)[C@H](O)[C@@H]2O`
not satisfied

Identify whether the reported pKi of the following compound is 9 or greater: `OC[C@H]1O[C@@H](n2cnc3c(NCc4cccnc4)ncnc32)[C@H](O)[C@@H]1O`
not satisfied

Identify whether the reported pKi of the following compound is 9 or greater: `CNC(=O)[C@]12C[C@@H]1[C@@H](n1cnc3c(NCc4cccc(Br)c4)nc(Cl)nc31)[C@H](O)[C@@H]2O`
satisfied

* * *

Target: Adenosine receptor A2b (Homo sapiens)
Test: Relative activation of human Adenosine A2B receptor at 10 uM treatment compared to 10 uM Cl-IB-MECA
Assay type: functional
# if value of Activation reaches 40%, tag t; if it stays below, tag f

Identify whether the reported Activation of the following compound is 40% or greater: `OC[C@H]1O[C@@H](n2cnc3c(NCc4cccc(I)c4)ncnc32)[C@H](O)[C@@H]1O`
t

Identify whether the reported Activation of the following compound is 40% or greater: `CNC(=O)[C@]12C[C@@H]1[C@@H](n1cnc3c(NCc4cccc(C)c4)nc(Cl)nc31)[C@H](O)[C@@H]2O`
t

Identify whether the reported Activation of the following compound is 40% or greater: `CNC(=O)[C@]12C[C@@H]1[C@@H](n1cnc3c(NCc4cc(I)ccc4OC)nc(Cl)nc31)[C@H](O)[C@@H]2O`
t

Identify whether the reported Activation of the following compound is 40% or greater: `CNC(=O)[C@]12C[C@@H]1[C@@H](n1cnc3c(NCc4cc(Cl)ccc4OCc4ccccc4)nc(Cl)nc31)[C@H](O)[C@@H]2O`
t

Identify whether the reported Activation of the following compound is 40% or greater: `CNC(=O)[C@]12C[C@@H]1[C@@H](n1cnc3c(NCc4cc(I)ccc4Cl)nc(Cl)nc31)[C@H](O)[C@@H]2O`
t

Identify whether the reported Activation of the following compound is 40% or greater: `OC[C@H]1O[C@@H](n2cnc3c(NCc4cccc(I)c4)nc(Cl)nc32)[C@H](O)[C@@H]1O`
f

Identify whether the reported Activation of the following compound is 40% or greater: `CNC(=O)[C@@]12C[C@@H]1[C@@H](n1cnc3c(NCc4cccc(Cl)c4)nc(Cl)nc31)[C@H](O)[C@@H]2O`
f

Identify whether the reported Activation of the following compound is 40% or greater: `CNC(=O)[C@]12C[C@@H]1[C@@H](n1cnc3c(NCc4cccc(Br)c4)nc(Cl)nc31)[C@H](O)[C@@H]2O`
f

Identify whether the reported Activation of the following compound is 40% or greater: OC[C@H]1O[C@@H](n2cnc3c(NC4CC4c4ccccc4)ncnc32)[C@H](O)[C@@H]1O (stereo not given in full)
f

Identify whether the reported Activation of the following compound is 40% or greater: `CNC(=O)[C@]12C[C@@H]1[C@@H](n1cnc3c(NCc4cc(C#CCO)ccc4Cl)nc(Cl)nc31)[C@H](O)[C@@H]2O`
f

* * *

Please provide measured Displacement for the entries that follow.
Target: UniProt:P29274
Test: Displacement of [3H]-CGS- 21680 from human Adenosine A2A receptor expressed in CHO cells at 10 uM
Type: cell-based
Please reply with the bare figure in % and do not write the unit itself.

# return Displacement for `CNC(=O)[C@]12C[C@@H]1[C@@H](n1cnc3c(NCc4cc(OC)ccc4OC)nc(Cl)nc31)[C@H](O)[C@@H]2O` , test system: UniProt:P29274
52

# return Displacement for `CNC(=O)[C@]12C[C@@H]1[C@@H](n1cnc3c(NCc4ccc(N)cc4)nc(Cl)nc31)[C@H](O)[C@@H]2O` , test system: UniProt:P29274
28

# return Displacement for `CNC(=O)[C@]12C[C@@H]1[C@@H](n1cnc3c(NCc4cccc(C#CCO)c4)nc(Cl)nc31)[C@H](O)[C@@H]2O` , test system: UniProt:P29274
56

# return Displacement for CNC(=O)C12C[C@@H]1[C@@H](n1cnc3c(NCc4cccnc4)nc(Cl)nc31)[C@H](O)[C@@H]2O (single isomer, unassigned) , test system: UniProt:P29274
33

* * *

Biological target: Adenosine receptor A2a (Homo sapiens)
Sequence (P29274 whole entry): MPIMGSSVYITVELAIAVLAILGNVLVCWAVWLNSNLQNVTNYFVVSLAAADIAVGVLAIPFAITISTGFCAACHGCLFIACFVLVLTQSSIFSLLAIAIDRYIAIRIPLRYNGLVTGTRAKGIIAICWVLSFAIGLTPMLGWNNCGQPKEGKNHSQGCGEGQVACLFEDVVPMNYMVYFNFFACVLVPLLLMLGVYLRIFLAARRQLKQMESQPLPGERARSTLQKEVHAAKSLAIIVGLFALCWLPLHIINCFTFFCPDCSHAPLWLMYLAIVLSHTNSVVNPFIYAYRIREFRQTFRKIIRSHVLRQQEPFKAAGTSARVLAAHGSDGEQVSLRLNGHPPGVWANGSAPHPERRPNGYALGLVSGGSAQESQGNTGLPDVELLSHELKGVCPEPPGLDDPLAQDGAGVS
Experiment: Displacement of [3H]-CGS- 21680 from human Adenosine A2A receptor expressed in CHO cells at 10 uM
Format: cell-based
quantity.measured: Displacement (%)
Please reply with the bare figure in % and do not write the unit itself.

Consider the compound `CNC(=O)[C@@]12C[C@@H]1[C@@H](n1cnc3c(NC)nc(Cl)nc31)[C@H](O)[C@@H]2O` and give its recorded Displacement.
6

Consider the compound `CNc1ncnc2c1ncn2[C@@H]1O[C@H](CO)[C@@H](O)[C@H]1O` and give its recorded Displacement.
17

Consider the compound `CNC(=O)[C@]12C[C@@H]1[C@@H](n1cnc3c(NC)nc(N)nc31)[C@H](O)[C@@H]2O` and give its recorded Displacement.
17

Consider the compound `CNC(=O)[C@]12C[C@@H]1[C@@H](n1cnc3c(NCc4cccc(Cl)c4)nc(I)nc31)[C@H](O)[C@@H]2O` and give its recorded Displacement.
43

Consider the compound `CNC(=O)[C@]12C[C@@H]1[C@@H](n1cnc3c(NCc4cccc(Cl)c4)nc(SC)nc31)[C@H](O)[C@@H]2O` and give its recorded Displacement.
52

Consider the compound `CNc1nc(N)nc2c1ncn2[C@@H]1O[C@H](CO)[C@@H](O)[C@H]1O` and give its recorded Displacement.
15

Consider the compound `CNC(=O)[C@]12C[C@@H]1[C@@H](n1cnc3c(NCc4cc(C#CCO)ccc4Cl)nc(Cl)nc31)[C@H](O)[C@@H]2O` and give its recorded Displacement.
12

* * *

Molecular target: Adenosine receptor A2a (Homo sapiens)
Doc: threshold 2000 nM (exclusive). Items with Ki beneath it return True; others return False.

Answer whether the compound `CNC(=O)[C@]12C[C@@H]1[C@@H](n1cnc3c(NCc4cccc(C)c4)nc(Cl)nc31)[C@H](O)[C@@H]2O` has Ki strictly less than 2000 nM
False

Answer whether the compound `COc1ccc(Cl)cc1CNc1ncnc2c1ncn2[C@@H]1O[C@H](CO)[C@@H](O)[C@H]1O` has Ki strictly less than 2000 nM
True

Answer whether the compound `CNC(=O)[C@@]12C[C@@H]1[C@@H](n1cnc3c(NCc4cccc(Cl)c4)nc(Cl)nc31)[C@H](O)[C@@H]2O` has Ki strictly less than 2000 nM
False

Answer whether the compound `CNC(=O)[C@]12C[C@@H]1[C@@H](n1cnc3c(NCc4cc(Cl)ccc4OCC(N)=O)nc(Cl)nc31)[C@H](O)[C@@H]2O` has Ki strictly less than 2000 nM
True

Answer whether the compound `CNC(=O)[C@]12C[C@@H]1[C@@H](n1cnc3c(NCC(c4ccccc4)c4ccccc4)nc(Cl)nc31)[C@H](O)[C@@H]2O` has Ki strictly less than 2000 nM
True

Answer whether the compound `CNC(=O)[C@]12C[C@@H]1[C@@H](n1cnc3c(NCc4cccc(Br)c4)nc(Cl)nc31)[C@H](O)[C@@H]2O` has Ki strictly less than 2000 nM
True

Answer whether the compound CNC(=O)[C@]12C[C@@H]1[C@@H](n1cnc3c(NC4CC4c4ccccc4)nc(Cl)nc31)[C@H](O)[C@@H]2O (stereo partly specified) has Ki strictly less than 2000 nM
False

Answer whether the compound `OC[C@H]1O[C@@H](n2cnc3c(NCc4cccnc4)ncnc32)[C@H](O)[C@@H]1O` has Ki strictly less than 2000 nM
False

Answer whether the compound `CNC(=O)[C@]12C[C@@H]1[C@@H](n1cnc3c(NCc4cc(Cl)ccc4OCc4ccccc4)nc(Cl)nc31)[C@H](O)[C@@H]2O` has Ki strictly less than 2000 nM
True

Answer whether the compound `CNC(=O)[C@@]12C[C@@H]1[C@@H](n1cnc3c(NCc4cc(Cl)ccc4OC)nc(Cl)nc31)[C@H](O)[C@@H]2O` has Ki strictly less than 2000 nM
True

Answer whether the compound `OC[C@@]12C[C@@H]1[C@@H](n1cnc3c(NCc4cccc(I)c4)ncnc31)[C@H](O)[C@@H]2O` has Ki strictly less than 2000 nM
True
